Molecular target: human recombinant renin (Homo sapiens, UniProt P00797)
Sequence (P00797 67-406): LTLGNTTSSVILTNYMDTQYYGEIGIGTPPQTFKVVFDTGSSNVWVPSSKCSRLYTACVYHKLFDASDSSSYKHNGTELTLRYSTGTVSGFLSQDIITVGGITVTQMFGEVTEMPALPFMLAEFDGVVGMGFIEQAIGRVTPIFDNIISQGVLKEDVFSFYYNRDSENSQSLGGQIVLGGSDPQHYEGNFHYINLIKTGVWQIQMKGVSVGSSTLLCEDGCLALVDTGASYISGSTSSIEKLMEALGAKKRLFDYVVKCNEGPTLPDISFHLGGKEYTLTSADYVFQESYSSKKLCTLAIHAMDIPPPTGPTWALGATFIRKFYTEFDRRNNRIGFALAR
Assay: Inhibition of human recombinant renin (enzymatic in vitro assay, Ang I EIA)
Type: biochemical
Conditions: human recombinant renin 40 pM, buffer, 37° C. 3 h
As shown below, each of these compounds has a reported IC50 value.
reported endpoint: IC50 (nM)

1) Cc1cc(Cl)c(OCCOc2ccc(CC(CN)c3ccc(-c4ccccc4Cl)cc3Cl)cc2)c(Cl)c1 (stereo not shown) : 0.5
2) COCCCc1cccc(C)c1-c1ccc(C(CN)Cc2ccc(OCCOc3c(Cl)cc(C)cc3Cl)cc2)c(C)c1 (stereo not shown) : 0.2
3) COCCc1ccccc1-c1ccc(C(CN)Cc2ccc(OCCOc3c(Cl)cc(C)cc3Cl)cc2)c(C)c1 (stereo not shown) : 19.7
4) Cc1cc(Cl)c(OCCOc2ccc(CC(CN)c3ccc(-c4ccccc4CCC#N)cc3C)cc2)c(Cl)c1 (stereo not shown) : 10.6
